studySystem: CRF1 receptors (Homo sapiens)
Construct: endogenous in cells; host or cells: IMR-32 cells, transformed with 2.5 µM 5'-bromo-2'-deoxyuridine for 10 days; membrane preparation
Sequence (P34998 24-415): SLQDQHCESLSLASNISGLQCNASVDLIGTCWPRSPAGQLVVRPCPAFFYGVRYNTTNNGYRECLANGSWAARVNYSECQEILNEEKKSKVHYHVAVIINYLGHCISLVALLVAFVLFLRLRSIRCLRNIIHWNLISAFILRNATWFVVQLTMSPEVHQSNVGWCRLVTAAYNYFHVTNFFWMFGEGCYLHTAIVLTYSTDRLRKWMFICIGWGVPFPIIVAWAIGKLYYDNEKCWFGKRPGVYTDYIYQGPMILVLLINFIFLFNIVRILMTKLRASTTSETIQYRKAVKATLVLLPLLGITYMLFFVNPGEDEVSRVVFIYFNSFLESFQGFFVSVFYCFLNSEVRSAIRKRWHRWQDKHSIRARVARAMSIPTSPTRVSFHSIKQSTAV
assayNotes: CRF1 receptor radioligand binding assay ([125I]-oCRF competition, IMR-32 cell membranes)
conditionSet: IMR-32 cell membranes, [125I]-oCRF 100 pM; read-out: Ki (CRF-1R)
# Ki per record follows

| compound | Ki |
| --- | --- |
| Cc1cc(C)c(N2CCCn3c2nc(C(F)(F)F)c3CN(CC2CCC2)CC(F)(F)F)c(Cl)c1 [Example 112] | < 100 nM |
| CC(C)c1ccc(-n2c3ccccc3n3c(CN(CC4CC4)CC(F)(F)C(F)(F)F)c(C(F)(F)F)nc23)c(Br)c1 [Example 191] | < 1000 nM |
| CCN(Cc1ccccc1)Cc1c(C(F)(F)F)nc2n(-c3c(C)cc(C)cc3C)c3ncccc3n12 [Example 233] | < 10000 nM |
| Cc1cc(C)c(-n2c(Cl)cn3c(CN(CCC(F)(F)F)Cc4ccc(F)cc4)c(C(F)(F)F)nc23)c(C)c1 [Example 333] | < 100 nM |
| Cc1cc(C)c(N2CCCn3c2nc(C(F)(F)F)c3CN(CCc2ccccc2)CC(F)(F)F)c(C)c1 [Example 82] | < 100 nM |
| CCCN(CCc1ccccc1)C(=O)c1c(CC)nc2n1CCN2c1c(C)cc(C)cc1Br [Example 41] | < 1000 nM |
| Cc1cc(C)c(N2CCCn3c2nc(C(F)(F)F)c3CN(C)CCc2ccccc2)c(C)c1 [Example 66] | < 1000 nM |
| CCCN(CC1CCC1)C(=O)c1c(CC)nc2n1CCN2c1c(C)cc(C)cc1Br [Example 42] | < 1000 nM |
| Cc1cc(C)c(-n2c(Cl)cn3c(CN(C)Cc4ccco4)c(C(F)(F)F)nc23)c(C)c1 [Example 314] | < 1000 nM |
| CCCCN(C)Cc1c(C(F)(F)F)nc2n1CCCN2c1c(C)cc(C)cc1Cl [Example 104] | < 1000 nM |
| Cc1cc(C)c(N2CCCn3c2nc(C(F)(F)F)c3CN(CCC2CC2)CCC(F)(F)F)c(Cl)c1 [Example 122] | < 1000 nM |
| CCCN(CC1CC1)C(=O)c1c(C(F)(F)F)nc2n(-c3c(C)cc(C)cc3C)c(Cl)cn12 [Example 302] | < 100 nM |
| CCCN(CCC)C(=O)c1c(CC)nc2n(-c3c(C)cc(C)cc3C)c(Cl)cn12 [Example 292] | < 100 nM |
| CCCN(CCC(F)(F)F)Cc1c(C(F)(F)F)nc2n(-c3ccc(C(C)C)cc3Br)c3ccccc3n12 [Example 197] | < 1000 nM |
| CCCN(Cc1ccc(Cl)cc1)C(=O)c1c(CC)nc2n1CCN2c1c(C)cc(C)cc1C [Example 21] | < 10000 nM |
| Cc1cc(C)c(N2CCCn3c2nc(C(F)(F)F)c3CN2CCSCC2)c(Cl)c1 [Example 98] | < 1000 nM |
| Cc1cc(C)c(N2CCCn3c2nc(C(F)(F)F)c3CN(C)Cc2ccccc2)c(Cl)c1 [Example 107] | < 1000 nM |
| CCC=C(CCC)c1c(CC)nc2n1CCN2c1c(C)cc(C)cc1C [Example 48] | < 100 nM |
| Cc1cc(C)c(-n2c3ccccc3n3c(CN(CCc4ccccc4)CC(F)(F)F)c(C(F)(F)F)nc23)c(C)c1 [Example 171] | < 1000 nM |
| CCN(CCc1ccccc1)Cc1c(C(F)(F)F)nc2n1CCCN2c1c(C)cc(C)cc1Cl [Example 120] | < 1000 nM |
| CCc1nc2n(c1C(=O)N(CC)CC1CCC1)CCN2c1c(C)cc(C)cc1Br [Example 43] | < 1000 nM |
| Cc1cc(C)c(N2CCCn3c2nc(C(F)(F)F)c3CN(CC2CC2)CC(F)(F)F)c(C)c1 [Example 73] | < 10 nM |
| CCCN(Cc1c(CC)nc2n(-c3c(C)cc(C)cc3C)c3ncccc3n12)CC1CC1 [Example 247] | < 100 nM |
| FC(F)(F)c1nc2n(-c3ccc(Cl)cc3Cl)c3ccccc3n2c1CN(CC1CC1)CC1CC1 [Example 177] | < 1000 nM |
| CCc1nc2n(c1C(=O)N(CCC(F)(F)F)CC1CC1)CCN2c1c(C)cc(C)cc1Cl [Example 29] | < 1000 nM |
| CCCN(CC1CC1)C(=O)c1c(CC)nc2n(-c3c(C)cc(C)cc3C)c3ccc(F)cc3n12 [Example 144] | < 100 nM |
| CC(C)c1ccc(-n2c3ccccc3n3c(CN(CC4CC4)CC4CC4)c(C(F)(F)F)nc23)c(Br)c1 [Example 187] | < 100 nM |
| Cc1cc(C)c(-n2c(Cl)cn3c(CN(C)Cc4ccccc4)c(C(F)(F)F)nc23)c(C)c1 [Example 307] | < 1000 nM |
| FC(F)(F)c1nc2n(-c3ccc(Cl)cc3Cl)c3ccccc3n2c1CN(CC1CC1)CC(F)(F)C(F)(F)F [Example 183] | < 10000 nM |
| Cc1cc(C)c(-n2c3ncccc3n3c(CN(CCC(F)(F)F)Cc4ccccc4)c(C(F)(F)F)nc23)c(C)c1 [Example 227] | < 1000 nM |
| Cc1cc(C)c(-n2c3ccccc3n3c(CN(CCC4CC4)CC(F)(F)F)c(C(F)(F)F)nc23)c(C)c1 [Example 169] | < 1000 nM |
